Organism: Rattus norvegicus
Assay: Open TG-GATES - Regimen: Daily Repeat
Assay type: toxicity, organism-based, Sprague-Dawley
Parameters: regimen Daily Repeat, gender Male, age 6 weeks
Details: in vivo, po, 0 mg/kg, […], tissue Plasma, route gavage, dose level Control, time 28 day
assay-readout: TC
Note: a bare number is incomplete; add the unit.

A selection of reference data follows.
CN(C)CCCN1c2ccccc2CCc2ccccc21 [IMIPRAMINE]: 68 mg/dL
CC(C)OC(=O)C(C)(C)Oc1ccc(C(=O)c2ccc(Cl)cc2)cc1 [FENOFIBRATE]: 71.4 mg/dL

Attention now turns to another entry.
What value of TC has been recorded for this entry: NNC(=O)c1ccncc1 [ISONIAZID]
70.6 mg/dL

* * *

Species: Rattus norvegicus
Test: Open TG-GATES - Regimen: Single
Assay type: toxicity, organism-based, Sprague-Dawley
Parameters: regimen Single, gender Male, age 6 weeks
Conditions: in vivo, po, 0 mg/kg, 24 h, tissue Blood, route gavage, dose level Control
Quick reference: PT of the listed items.
Numbers only here, please. The scale is s.

A selection of reference data follows.
NNC(=O)c1ccncc1: 11.5
CN1C(=O)CN=C(c2ccccc2)c2cc(Cl)ccc21: 12.2

Attention now turns to another entry.
What value of PT has been recorded for this entry: CCCNC(=O)NS(=O)(=O)c1ccc(Cl)cc1 [CHLORPROPAMIDE]
15.5

* * *

Organism: Rattus norvegicus
Experiment: Open TG-GATES - Regimen: Daily Repeat
Format: toxicity, organism-based, Sprague-Dawley
Design: regimen Daily Repeat, gender Male, age 6 weeks
Settings: in vivo, po, 1000 mg/kg, […], tissue Plasma, route gavage, dose level High, time 14 day
Quick reference: RALB of the listed items.
Numbers only here, please. The scale is g/dL.

What value of RALB has been recorded for this entry: CCOC(=O)CCC(=O)O[C@H]1[C@H](O[C@@H]2[C@@H](C)[C@H](O[C@H]3C[C@@](C)(OC)[C@@H](O)[C@H](C)O3)[C@@H](C)C(=O)O[C@H](CC)[C@@](C)(O)[C@H](O)[C@@H](C)C(=O)[C@H](C)C[C@@]2(C)O)O[C@H](C)C[C@@H]1N(C)C [ERYTHROMYCIN ETHYLSUCCINATE]
2.9

What value of RALB has been recorded for this entry: NC(N)=Nc1nc(CSCCC(N)=NS(N)(=O)=O)cs1 [FAMOTIDINE]
3.6

What value of RALB has been recorded for this entry: CCOc1ccc(NC(=O)CC(C)O)cc1 (centres undefined) [BUCETIN]
2.8

What value of RALB has been recorded for this entry: CC(C)OC(=O)C(C)(C)Oc1ccc(C(=O)c2ccc(Cl)cc2)cc1 [FENOFIBRATE]
2.9

* * *

Species on record: Rattus norvegicus
Experiment: Open TG-GATES - Regimen: Single
Type: toxicity, organism-based, Sprague-Dawley
Parameters: regimen Single, gender Male, age 6 weeks
Conditions: in vivo, po, 0 mg/kg, 24 h, tissue Plasma, route gavage, dose level Control
Quick reference: gamma-GTP of the listed items.

A selection of reference data follows.
CN1C(=O)CN=C(c2ccccc2)c2cc(Cl)ccc21: 1 IU/L
CCOC(=O)CCC(=O)O[C@H]1[C@H](O[C@@H]2[C@@H](C)[C@H](O[C@H]3C[C@@](C)(OC)[C@@H](O)[C@H](C)O3)[C@@H](C)C(=O)O[C@H](CC)[C@@](C)(O)[C@H](O)[C@@H](C)C(=O)[C@H](C)C[C@@]2(C)O)O[C@H](C)C[C@@H]1N(C)C [ERYTHROMYCIN ETHYLSUCCINATE]: 1.2 IU/L
CN(C)CCN(Cc1cccs1)c1ccccn1: 1 IU/L
COC1=CC(=O)C[C@@H](C)[C@]12Oc1c(Cl)c(OC)cc(OC)c1C2=O: 1.2 IU/L
CC/C(=C(\c1ccccc1)c1ccc(OCCN(C)C)cc1)c1ccccc1: 1 IU/L

What value of gamma-GTP has been recorded for this entry: CC(C)OC(=O)C(C)(C)Oc1ccc(C(=O)c2ccc(Cl)cc2)cc1 [FENOFIBRATE]
0.8 IU/L

What value of gamma-GTP has been recorded for this entry: CCCNC(=O)NS(=O)(=O)c1ccc(Cl)cc1 [CHLORPROPAMIDE]
1 IU/L

What value of gamma-GTP has been recorded for this entry: O=C(CCCN1CCC(O)(c2ccc(Cl)cc2)CC1)c1ccc(F)cc1
1 IU/L

What value of gamma-GTP has been recorded for this entry: CN(C)CCCN1c2ccccc2CCc2ccccc21
1 IU/L
